- target_of_assay: Aurora kinase A (Homo sapiens, UniProt O14965)
- Sequence (O14965 whole entry): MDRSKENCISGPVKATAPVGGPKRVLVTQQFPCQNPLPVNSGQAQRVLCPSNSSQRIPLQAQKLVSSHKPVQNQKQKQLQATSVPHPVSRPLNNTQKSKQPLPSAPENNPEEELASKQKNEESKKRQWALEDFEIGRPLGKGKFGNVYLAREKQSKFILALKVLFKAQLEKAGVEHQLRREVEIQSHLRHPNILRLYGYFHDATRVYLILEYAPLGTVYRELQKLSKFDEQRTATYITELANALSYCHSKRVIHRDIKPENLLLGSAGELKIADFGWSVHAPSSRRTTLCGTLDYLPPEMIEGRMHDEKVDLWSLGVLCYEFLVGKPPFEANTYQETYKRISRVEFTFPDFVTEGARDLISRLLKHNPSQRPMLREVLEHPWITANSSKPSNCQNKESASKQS
- protocol_notes: Aurora A Inhibition Assay
- test_context: pH 9.5; 16 °C
The molecules listed here are annotated with their pIC50.
Formally, pIC50 is defined as -log10 of the concentration c, with c in mol/L.

QUERY: Requested read-out pIC50, target or system Aurora kinase A (Homo sapiens, UniProt O14965), entry CCCCN(C)c1nc(NCCc2ccccc2OC)nc(NC(Cc2c[nH]c3ncccc23)C(N)=O)n1 (centres undefined)
RESULT: 5.42

QUERY: Requested read-out pIC50, target or system Aurora kinase A (Homo sapiens, UniProt O14965), entry CCCCN(C)c1nc(NCCc2ccccc2OC)nc(NCCc2c[nH]c3ncccc23)n1
RESULT: 5.92

QUERY: Requested read-out pIC50, target or system Aurora kinase A (Homo sapiens, UniProt O14965), entry COc1ccccc1CCNc1nc(NC(Cc2c[nH]c3ncccc23)C(N)=O)nc(N(C)[C@@H](C)c2ccccc2)n1 (some centres undefined)
RESULT: 5.20

Continuing:
QUERY: Requested read-out pIC50, target or system Aurora kinase A (Homo sapiens, UniProt O14965), entry COc1ccccc1CCNc1nc(Nc2ccc3ncccc3c2)nc(NC(Cc2c[nH]c3ncccc23)C(N)=O)n1 (centres undefined)
RESULT: 5.43
